target: P. falciparum apicoplast DNA polymerase (Pf-apPOL) (Plasmodium falciparum, UniProt Q8ILY1); assay: Fluorescence-based high-throughput DNA polymerase assay (molecular beacon), primary screen and dose-response; format: biochemical; settings: DRC-2, 5', concentration 80
Sequence (Q8ILY1 entry or part of it): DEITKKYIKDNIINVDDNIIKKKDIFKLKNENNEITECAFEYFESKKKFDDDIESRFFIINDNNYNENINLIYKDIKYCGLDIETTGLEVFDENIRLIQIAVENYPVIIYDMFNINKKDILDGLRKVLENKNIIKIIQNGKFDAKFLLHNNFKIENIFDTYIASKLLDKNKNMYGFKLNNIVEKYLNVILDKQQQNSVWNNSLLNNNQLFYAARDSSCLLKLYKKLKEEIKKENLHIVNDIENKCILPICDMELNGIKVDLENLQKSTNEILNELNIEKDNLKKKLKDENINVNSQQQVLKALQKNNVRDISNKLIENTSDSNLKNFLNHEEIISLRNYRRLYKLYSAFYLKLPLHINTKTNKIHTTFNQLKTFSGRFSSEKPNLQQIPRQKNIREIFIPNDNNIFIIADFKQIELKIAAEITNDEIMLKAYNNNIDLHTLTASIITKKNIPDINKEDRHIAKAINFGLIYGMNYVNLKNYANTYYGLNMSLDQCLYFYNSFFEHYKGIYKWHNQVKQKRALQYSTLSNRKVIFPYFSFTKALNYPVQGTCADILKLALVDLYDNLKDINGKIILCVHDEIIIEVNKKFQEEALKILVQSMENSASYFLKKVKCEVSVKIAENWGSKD
Binary classification by % inhibition Apo pol 5', with 50% as an inclusive lower bound for condition met; all other cases are condition not met.

Example cases with answers are listed next.
CN(C)C=CC(=O)c1ccccn1	condition met
CN1CC(=Cc2ccco2)C(=O)C(=Cc2ccco2)C1	condition not met
CSCCC(C)(O)CNC(=O)C1CC1 (centres unmarked)	condition not met
CN(C)C=C1SCc2ccccc2C1=O	condition met
COc1ccccc1CCC(=O)N1CCc2c(nc3cc(-c4ccccc4)[nH]n3c2=O)C1	condition not met

Is % inhibition Apo pol 5' at least 50%? Consider COc1ccc(C(=O)Nc2cccc(-c3nc4ncccc4o3)c2)cc1[N+](=O)[O-]
condition not met

Is % inhibition Apo pol 5' at least 50%? Consider O=C(Nc1ncc([N+](=O)[O-])s1)c1ccc2c(c1)C(=O)N(N1C(=O)c3ccccc3C1=O)C2=O
condition met

====

biological target: P. falciparum apicoplast DNA polymerase (Pf-apPOL) (Plasmodium falciparum); test: Fluorescence-based high-throughput DNA polymerase assay (molecular beacon), primary screen and dose-response; assay type: biochemical; conditions: DRC-2, 90', concentration 40 (unit not given)
property_measured: % inhibition ApPOL 90'
Hey, just the number and the unit after it is fine.

Please review the following examples before continuing.
O=C(Cn1ccc2c(=O)[nH]ccc21)Nc1ccc(Cl)cc1 [Molecule 36, O=C(Cn1ccc2c1cc[nH]c2=O)Nc1ccc(cc1)Cl]	67%
Cc1cc(C)c2c(O)nc(SCC(=O)c3ccc(O)c(O)c3)nc2n1	71%

The compound listed as CCOc1cccc2cc(C(=O)Nc3nnc(-c4ccno4)o3)oc12 shows % inhibition ApPOL 90' equal to 66%

The compound listed as N#Cc1c(C2CCCCC2)nc(Sc2ccc(C(F)(F)F)cc2[N+](=O)[O-])[nH]c1=O shows % inhibition ApPOL 90' equal to 77%

The compound listed as Cc1ccc(CCNC(=O)c2cnn3c(O)c(Cc4ccccc4F)c(C)nc23)cc1 shows % inhibition ApPOL 90' equal to 67%

The compound listed as Cc1cccc(CC(=O)N2CCc3c(nc4cc(-c5ccccc5)[nH]n4c3=O)C2)c1 shows % inhibition ApPOL 90' equal to 70%

The compound listed as OC(C#Cc1ccccc1)c1ccco1 (centres unmarked) shows % inhibition ApPOL 90' equal to 66%

The compound listed as Cc1ccc(C)c(CSc2nc(C3CCCCC3)c(C#N)c(=O)[nH]2)c1 shows % inhibition ApPOL 90' equal to 80%

====

molecular target: P. falciparum apicoplast DNA polymerase (Pf-apPOL) (Plasmodium falciparum, UniProt Q8ILY1); assay: Fluorescence-based high-throughput DNA polymerase assay (molecular beacon), primary screen and dose-response; type: biochemical; details: DRC-2; 5'; concentration 40
property_measured: % inhibition Apo pol 5' (%)
// note: answer is a bare numeric in %

O=C(NNC(=O)c1ccc(Cl)cc1)C(=O)NNC(=O)c1ccc(Cl)cc1 [Molecule 25]	49
O=C(CSc1nnc(-c2ccncc2)[nH]1)c1ccc(O)c(O)c1 [Molecule 89]	57
O=C1CCCC2=C1C(c1ccccn1)C1=C(CCCC1=O)O2 [KU0194228]	44
CCC(C)NC(=O)c1cc(NC(C)=O)cc2nc(C)ccc12 (centres unmarked) [KU0206314]	49
CCOc1nc2cccc(C(=O)OC(C)OC(=O)OC3CCCCC3)c2n1Cc1ccc(-c2ccccc2-c2nnn[nH]2)cc1 (centres unmarked) [Molecule 94]	61

The molecule listed as COc1ccc(-c2n[nH]cc2Oc2ccc(Cl)cc2)c(O)c1 [KU0029837] shows % inhibition Apo pol 5' equal to 51

The molecule listed as Cc1nc(/N=N/c2ccc(C(=O)[O-])cc2)c(COP(=O)([O-])[O-])c(C=O)c1O.[Na+].[Na+].[Na+] [KU0261395] shows % inhibition Apo pol 5' equal to 54

The molecule listed as N#CC(C#N)=C1SCN(c2cccc(Cl)c2)CS1 [Molecule 29, N#CC(=C1SCN(CS1)c1cccc(c1)Cl)C#N] shows % inhibition Apo pol 5' equal to 60
